Target: Siderocalin (Scn; a.k.a. Lcn2, Ngal, 24p3) (Homo sapiens)
Sequence (P80188 21-198): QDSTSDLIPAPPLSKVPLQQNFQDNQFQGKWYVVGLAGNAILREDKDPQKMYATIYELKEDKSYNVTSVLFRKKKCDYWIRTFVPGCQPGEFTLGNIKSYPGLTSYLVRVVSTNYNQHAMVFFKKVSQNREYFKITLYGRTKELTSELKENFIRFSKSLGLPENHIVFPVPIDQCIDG
Assay: intrinsic fluorescence quenching titration
Type: binding
Conditions: pH 7.4, TBS, 5% DMSO, 32 μg/mL ubiquitin, 100 nM protein; ferric complex
Measured Kd (μM) by item

{"columns": ["substance", "Kd (μM)"],
 "data": [
  ["Fe^IIICMB-7 [n = 7]", "0.128 ± 1.0×10^−3 μM"]
]}

Give the measured Kd (μM) of Fe^IIICMB (n = 4) .
2.36 ± 9.0×10^−3 μM

Fe^IIICMB-5 [n = 5] , same question.
1.10 ± 2.6×10^−2 μM

Fe^IIICMB-6 [n = 6] , same question.
0.654 ± 2.2×10^−2 μM
